Values were extracted from patent EP1803452A1.

test: Stability test in buffer (pH 7.4); type: physicochemical; settings: phosphate buffer/acetonitrile 7:3; 10 minutes at 37°C, 100 mM potassium phosphate buffer (pH 7.4) and acetonitrile 7:3 (v/v), LC/MS; read-out: Buf. remaining rate (%/10min)
Measured property: remaining at 10 min (%)
Note: unit % is implicit; provide only the numeric part.

| Given smiles | Unit abbreviation | remaining at 10 min |
| --- | --- | --- |
| CCc1cc(C(=O)OC)cc(F)c1OC(=O)CCCc1ccc(NC(=O)c2ccc(C)nc2-c2ccc(C(F)(F)F)cc2)c(C(=O)N(C)C)c1 | % | 103 |
| CCC(=O)c1ccc(OC(=O)CCCc2ccc(NC(=O)c3ccccc3-c3ccc(C(F)(F)F)cc3)c(C(=O)N(C)C)c2)cc1 | % | 102 |

Consider the record given below.
The value of remaining at 10 min measured for the molecule COC(=O)c1cc(C)c(OC(=O)CCCc2ccc(NC(=O)c3ccc(C)nc3-c3ccc(C(F)(F)F)cc3)c(C(=O)N(C)C)c2)c(C)c1 turned out to be 104

---

test: Metabolic stability test in plasma; type: in vitro ADME, human; conditions: unchanged form after 60 minutes at 37°C in human plasma, LC/MS; read-out: Remaining rate in human plasma (%/60min)
Measured property: remaining at 1 h (%)
Note: unit % is implicit; provide only the numeric part.

Known remaining at 1 h results, listed for orientation:
| Molecule | Unit abbreviation | Observed result |
| --- | --- | --- |
| CCOC(=O)c1ccc(OC(=O)CCCc2ccc(NC(=O)c3ccccc3-c3ccc(C(F)(F)F)cc3)c(C(=O)N3CCCC3)c2)c(F)c1 [Compound 1-16] | % | 0 |
| Cc1ccc(C(=O)Nc2ccc(CCCC(=O)Oc3ccc(C(=O)OCc4cccnc4)cc3)cc2C(=O)N(C)C)c(-c2ccc(C(F)(F)F)cc2)n1 [Compound 1-94] | % | 9 |
| COC(=O)c1ccc(OC(=O)CCCc2ccc(NC(=O)c3cccnc3-c3ccc(C(F)(F)F)cc3)c(C(=O)N(C)C)c2)cc1 [Compound 1-28] | % | 0 |

The value of remaining at 1 h measured for the molecule COC(=O)c1cc(C)c(OC(=O)CCCc2ccc(NC(=O)c3ccc(C)nc3-c3ccc(C(F)(F)F)cc3)c(C(=O)N(C)C)c2)c(C)c1 [Compound 1-65] turned out to be 94

The value of remaining at 1 h measured for the molecule CCOC(=O)c1cc(C)c(OC(=O)CCCc2ccc(NC(=O)c3ccc(C)nc3-c3ccc(C(F)(F)F)cc3)c(C(=O)N(C)C)c2)c(C(=O)OC)c1 [Compound 1-52] turned out to be 0

The value of remaining at 1 h measured for the molecule COC(=O)c1ccc(OC(=O)CCCc2ccc(NC(=O)c3ccccc3-c3ccc(C(F)(F)F)cc3)c(C(=O)N(C)C)c2)cc1Cl [Compound 1-18] turned out to be 0

---

assay: Metabolic stability test in liver S9; assay type: in vitro ADME; conditions: pH 7.4; unchanged form after 10 minutes at 37°C, human liver S9 2 mg protein/mL, LC/MS; read-out: Remaining rate in human liver S9 (%/10min)
Measured property: remaining at 10 min (%)
Note: unit % is implicit; provide only the numeric part.

Known remaining at 10 min results, listed for orientation:
| Given smiles | remaining at 10 min, % |
| --- | --- |
| CCOC(=O)c1ccc(OC(=O)CCCc2ccc(NC(=O)c3ccccc3-c3ccc(C(F)(F)F)cc3)c(C(=O)N3CCCC3)c2)c(F)c1 | 2 |
| COC(=O)c1ccc(OC(=O)CCCc2ccc(NC(=O)c3ccccc3-c3ccc(C(F)(F)F)cn3)c(C(=O)N(C)C)c2)cc1 | 0 |

The value of remaining at 10 min measured for the molecule COC(=O)c1ccc(OC(=O)CCCc2ccc(NC(=O)c3ccc(C)nc3-c3ccc(C(F)(F)F)cc3)c(C(=O)N(C)C)c2)c(C)c1 turned out to be 0

---

assay: Metabolic stability test in plasma; assay type: in vitro ADME, human; details: unchanged form after 10 minutes at 37°C in human plasma, LC/MS; read-out: Remaining rate in human plasma (%/10min)
Threshold-based label: remaining at 10 min under 20% gives T, remaining at 10 min not under 20% gives F.

# example entries with known answers
| Compound | Assigned category |
| --- | --- |
| COC(=O)c1cc(OC)c(OC(=O)CCCc2ccc(NC(=O)c3ccc(C)nc3-c3ccc(C(F)(F)F)cc3)c(C(=O)N(C)C)c2)c(C(F)(F)F)c1 [Compound 1-47] | T |
| CCCC(=O)c1ccc(OC(=O)CCCc2ccc(NC(=O)c3ccccc3-c3ccc(C(F)(F)F)cc3)c(C(=O)N(C)C)c2)cc1 [Compound 1-93] | F |
| CN(C)C(=O)c1cc(CCCC(=O)Oc2ccc(C#N)cc2)ccc1NC(=O)c1ccccc1-c1ccc(C(F)(F)F)cc1 [Compound 1-23] | F |
| CN(C)C(=O)c1cc(CCCC(=O)Oc2ccc(C(=O)OCc3cccs3)cc2)ccc1NC(=O)c1ccccc1-c1ccc(C(F)(F)F)cc1 [Compound 1-98] | T |
| COC(=O)c1cc(C)c(OC(=O)CCCc2ccc(NC(=O)c3ccc(C)nc3-c3ccc(C(F)(F)F)cc3)c(C(=O)N(C)C)c2)c(C)c1 [Compound 1-65] | F |

Please indicate whether the reported remaining at 10 min of COC(=O)c1ccc(OC(=O)CCCc2ccc(NC(=O)c3ccccc3-c3ccc(C(F)(F)F)cc3)c(C(=O)N(C)C)c2)c(OC)c1 [Compound 1-12] is strictly below 20%.
T

Please indicate whether the reported remaining at 10 min of COC(=O)c1cc(C(=O)OC(C)C)ccc1OC(=O)CCCc1ccc(NC(=O)c2ccc(C)nc2-c2ccc(C(F)(F)F)cc2)c(C(=O)N(C)C)c1 [Compound 1-72] is strictly below 20%.
T

Please indicate whether the reported remaining at 10 min of COC(=O)c1ccc(OC(=O)CCCc2ccc(NC(=O)c3ccccc3-c3ccc(C(F)(F)F)cc3)c(C(=O)N(C)C)c2)c(F)c1 [Compound 1-10] is strictly below 20%.
T

Please indicate whether the reported remaining at 10 min of COC(=O)c1ccc(OC(=O)CCCc2ccc(NC(=O)c3ccc(C)cc3-c3ccc(C(F)(F)F)cc3)c(C(=O)N(C)C)c2)cc1 [Compound 1-9] is strictly below 20%.
F

Please indicate whether the reported remaining at 10 min of COC(=O)c1cc(OC)c(OC(=O)CCCc2ccc(NC(=O)c3ccc(C)nc3-c3ccc(C(F)(F)F)cc3)c(C(=O)N(C)C)c2)c(OC)c1 [Compound 1-39] is strictly below 20%.
T

Please indicate whether the reported remaining at 10 min of COC(=O)c1ccc(OC(=O)CCCc2ccc(NC(=O)c3ccc(C)nc3-c3ccc(C(F)(F)F)cc3)c(C(=O)N(C)C)c2)cc1 [Compound 1-13] is strictly below 20%.
F

Please indicate whether the reported remaining at 10 min of CN(C)C(=O)c1cc(CCCC(=O)Oc2ccc(-c3nnn(CC(=O)OCc4ccccc4)n3)cc2)ccc1NC(=O)c1ccccc1-c1ccc(C(F)(F)F)cc1 [Compound 1-104] is strictly below 20%.
F

---

assay: Metabolic stability test in liver S9; type: in vitro ADME; details: pH 7.4; unchanged form after 60 minutes at 37°C, human liver S9 2 mg protein/mL, LC/MS; read-out: Remaining rate in human liver S9 (%/60min)
Measured property: remaining at 1 h (%)
Note: unit % is implicit; provide only the numeric part.

| Compound | Observed result |
| --- | --- |
| Cc1ccc(C(=O)Nc2ccc(CCCC(=O)Oc3ccc(C(=O)OC(C)C)cc3)cc2C(=O)N(C)C)c(-c2ccc(C(F)(F)F)cc2)n1 [Compound 1-81] | 1 |

Consider the record given below.
The value of remaining at 1 h measured for the compound COC(=O)c1cc(C)c(OC(=O)CCCc2ccc(NC(=O)c3ccc(C)nc3-c3ccc(C(F)(F)F)cc3)c(C(=O)N(C)C)c2)c(C(=O)OC)c1 [Compound 1-110] turned out to be 0

---

test: Stability test in buffer (pH 7.4); assay type: physicochemical; conditions: phosphate buffer/acetonitrile 7:3; 60 minutes at 37°C, 100 mM potassium phosphate buffer (pH 7.4) and acetonitrile 7:3 (v/v), LC/MS; read-out: Buf. remaining rate (%/60min)
Reported values of remaining at 1 h for individual entries

Known remaining at 1 h results, listed for orientation:
| Molecule | remaining at 1 h |
| --- | --- |
| COC(=O)c1ccc(OC(=O)CCCc2ccc(NC(=O)c3ccc(C)cc3-c3ccc(C(F)(F)F)cc3)c(C(=O)N(C)C)c2)cc1 | 97% |
| COC(=O)c1cc(C)c(OC(=O)CCCc2ccc(NC(=O)c3ccc(C)nc3-c3ccc(C(F)(F)F)cc3)c(C(=O)N(C)C)c2)c(C(F)(F)F)c1 | 102% |
| COC(=O)c1cc(OC)c(OC(=O)CCCc2ccc(NC(=O)c3ccc(C)nc3-c3ccc(C(F)(F)F)cc3)c(C(=O)N(C)C)c2)c(C(=O)OC)c1 | 106% |
| COC(=O)c1ccc(OC(=O)CCCc2ccc(NC(=O)c3ccccc3-c3ccc(C(F)(F)F)cc3)c(C(=O)N(C)C)c2)cc1OC | 105% |
| CCc1cc(C(=O)OC)cc(F)c1OC(=O)CCCc1ccc(NC(=O)c2ccc(C)nc2-c2ccc(C(F)(F)F)cc2)c(C(=O)N(C)C)c1 | 103% |
| CC(C)OC(=O)c1ccc(OC(=O)CCCc2ccc(NC(=O)c3cccnc3-c3ccc(C(F)(F)F)cc3)c(C(=O)N(C)C)c2)cc1 | 102% |

The value of remaining at 1 h measured for the molecule CCOc1cc(C(=O)OC)cc(OC)c1OC(=O)CCCc1ccc(NC(=O)c2ccc(C)nc2-c2ccc(C(F)(F)F)cc2)c(C(=O)N(C)C)c1 turned out to be 100%

The value of remaining at 1 h measured for the molecule CN(C)C(=O)c1cc(CCCC(=O)Oc2ccc(C(=O)OCc3ccccn3)cc2)ccc1NC(=O)c1ccccc1-c1ccc(C(F)(F)F)cc1 turned out to be 103%

The value of remaining at 1 h measured for the molecule COC(=O)c1ccc(OC(=O)CCCc2ccc(NC(=O)c3ccccc3-c3ccc(C(F)(F)F)cc3)c(C(=O)N(C)C)c2)cc1C(F)(F)F turned out to be 103%

The value of remaining at 1 h measured for the molecule COC(=O)c1ccc(OC(=O)CCCc2ccc(NC(=O)c3ccc(C)nc3-c3ccc(C(F)(F)F)cc3)c(C(=O)N(C)C)c2)cn1 turned out to be 97%

The value of remaining at 1 h measured for the molecule COC(=O)c1ccc(OC(=O)CCCc2ccc(NC(=O)c3ccccc3-c3ccc(C(F)(F)F)cc3)c(C(=O)N(C)C)c2)c(Cl)c1 turned out to be 99%

The value of remaining at 1 h measured for the molecule CC(OC(=O)c1ccc(OC(=O)CCCc2ccc(NC(=O)c3ccccc3-c3ccc(C(F)(F)F)cc3)c(C(=O)N(C)C)c2)cc1)c1ccccc1 (stereo not drawn) turned out to be 99%
